B1: glmS ribozyme (parent)
chain: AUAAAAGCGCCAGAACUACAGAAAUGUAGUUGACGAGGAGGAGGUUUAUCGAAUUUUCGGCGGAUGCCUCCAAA

Variants of: B1
test.details: self-cleavage kobs at 640 uM GlcN6P; higher = faster cleavage; RNA array
condition.details: with glucosamine-6-phosphate
Fewer inactive variants are shown than the library holds.
property.measured: self-cleavage kobs at 640 uM GlcN6P

alteration	val
G32U G38C C68U	< 1e-05 s⁻¹
A36U C50G G66U	0.00107 s⁻¹
G7U U54C	< 1e-05 s⁻¹
A6G U31A A36G A48U	< 1e-05 s⁻¹
U54G A64U	1.94e-05 s⁻¹
G38C A39C G43U U57G C71U	< 1e-05 s⁻¹
G32A A33U C68G C71G	0.000432 s⁻¹
C16G G32A	0.0003 s⁻¹
G9C G40U	< 1e-05 s⁻¹
A12U A14U	0.00119 s⁻¹
A12C A36G A64C	< 1e-05 s⁻¹
A12U A52G	0.000717 s⁻¹
C8A C11A G44A	< 1e-05 s⁻¹
C11U U47A A48C C61A C70U C71A	< 1e-05 s⁻¹
G40U A48G G63U	< 1e-05 s⁻¹
G35U U45G C61A	< 1e-05 s⁻¹
